Target: VEGF165 (recombinant human vascular endothelial growth factor, 165 aa form) (Homo sapiens, UniProt P15692-4 P15692-4:27-191)
Sequence (P15692 other isoform, or with tags, fused parts or gaps): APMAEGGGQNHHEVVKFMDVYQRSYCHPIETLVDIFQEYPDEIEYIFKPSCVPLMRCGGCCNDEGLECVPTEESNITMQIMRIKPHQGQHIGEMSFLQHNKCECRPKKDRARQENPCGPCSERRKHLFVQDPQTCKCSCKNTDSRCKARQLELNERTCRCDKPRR
Assay: filter; PBS, 0.01% HSA, 37 C; monophasic
Details: tags: gift from N. Ferrara, Genentech; chain copies: 2 (dimer, stated); label: 32P; bulged hairpin
MEASURED_ENDPOINT: pKd
Note: pKd values are expressed as the negative base-10 logarithm of concentration in M.

Record request: pKd value, item GGUCAACGGUUGAGUCUGUCCCGUUCGAC (ssRNA) [ligand 40t]
7.70
